These measurements were taken from the NIST ThermoML archive (doi:10.1021/je700707y).

Catalogue of mass density readings, one per entry.
condition.context: 293.15 K; 101.33 kPa; Liquid; Vibrating tube method
Numbers after ± are expanded uncertainties.
result.type: mass density

CCCCCCCCCCn1cc[n+](C)c1.O=S(=O)([N-]S(=O)(=O)C(F)(F)F)C(F)(F)F: 1282.4 ± 4.1 kg/m3
C[N+]1(CC#N)CCCC1.O=S(=O)([N-]S(=O)(=O)C(F)(F)F)C(F)(F)F: 1545.4 ± 6 kg/m3
N#CC[n+]1ccccc1.O=S(=O)([N-]S(=O)(=O)C(F)(F)F)C(F)(F)F: 1636.2 ± 6.8 kg/m3
CCCCCCCCCCCCCC[P+](CCCCCC)(CCCCCC)CCCCCC.O=S(=O)([N-]S(=O)(=O)C(F)(F)F)C(F)(F)F: 1067.6 ± 2.8 kg/m3
